Value source: patent US6737383B1

Assignment: determine reported Bedstraw plant response rating for the given molecules.
System: bedstraw
Assay: Test B pre/postemergence bedstraw
Type: in vivo, Galium aparine
Settings: Preemergence, Rate 250 g/ha; scale 0 to 10, 0 is no effect, 10 is complete control
Procedure: […] At the same time, these crop and weed species were also treated with postemergence applications of test chemicals formulated in the same manner. […] Treated plants and controls were maintained in a greenhouse for twelve to sixteen days, after which all species were compared to controls and visually evaluated. […]
Please give the numeric answer without any surrounding text.

Exercise: Given the molecule CC(C)N(C(=O)n1oc(=O)n(Cc2ccco2)c1=O)c1ccc(F)cc1 , what is its reported Bedstraw plant response rating?
Solution: 0

Exercise: I would be grateful if you could share the reported Bedstraw plant response rating for CCc1nc(C)c(Cn2c(=O)on(C(=O)N(c3ccc(Cl)cc3)C(C)C)c2=O)s1 .
Solution: 0

Exercise: Fill in the blank: the reported Bedstraw plant response rating of Cc1ccccc1-n1c(=O)on(C(=O)N(c2ccc(Cl)cc2F)C(C)C)c1=O is ____.
Solution: 0

Exercise: Request the reported Bedstraw plant response rating associated with CC1CCCCC1n1c(=O)on(C(=O)N(c2ccc(F)cc2F)C(C)C)c1=O (stereo not shown)
Solution: 3

Exercise: Quick one: Bedstraw plant response rating of COc1nc(OC)nc(N(C(=O)n2oc(=O)n(C(C)C)c2=O)C(C)C)n1 ?
Solution: 0

Exercise: Requested read-out: Bedstraw plant response rating. Entry: Cc1noc(C)c1-n1c(=O)on(C(=O)N(c2ccc(F)cc2)C(C)C)c1=O
Solution: 0

Exercise: # get_value(readout='Bedstraw plant response rating', item= C=CCCCn1c(=O)on(C(=O)N(c2ccc(F)cc2F)C(C)C)c1=O )
Solution: 1

* * *

Tested on: wild oat
Assay: Test B pre/postemergence wild oat
Type: in vivo, Avena fatua
Details: Rate 250 g/ha, Postemergence; scale 0 to 10, 0 is no effect, 10 is complete control
Exercise: for every item that follows, state its recorded Plant response rating, Wild oats.
// return just the number, without any unit appended

Exercise: # Plant response rating, Wild oats lookup, item CCn1c(=O)on(C(=O)N(c2ccc(Cl)cc2)C(C)C)c1=O [Compound 108]
Solution: 3

Exercise: # get_value(readout='Plant response rating, Wild oats', item= CCc1noc(CC)c1-n1c(=O)on(C(=O)N(c2ccc(F)cc2)C(C)C)c1=O [Compound 102] )
Solution: 0

Exercise: Tell me the measured Plant response rating, Wild oats of CC(C)N(C(=O)n1oc(=O)n(CC(F)(F)F)c1=O)c1ccc(F)cc1 [Compound 163] , please.
Solution: 3

Exercise: Which Plant response rating, Wild oats is listed for CCN(CC)C(=O)n1oc(=O)n(-c2cccc3c2CCCC3)c1=O [Compound 89] ?
Solution: 0

Exercise: Returns the measured Plant response rating, Wild oats for the input molecule. Input: CC(C)Cn1c(=O)on(C(=O)N(c2ccc(F)cc2)C(C)C)c1=O [Compound 169]
Solution: 0

Exercise: Please give the measured Plant response rating, Wild oats for this molecule: CCCn1c(=O)on(C(=O)N(c2ccc(Cl)cc2)C(C)C)c1=O [Compound 119]
Solution: 3

Exercise: Given CC(C)N(C(=O)n1oc(=O)n(C2CCCCC2)c1=O)c1ccc(F)cc1 [Compound 110] , state its recorded Plant response rating, Wild oats.
Solution: 0

Exercise: Dear colleague, I am looking for the recorded Plant response rating, Wild oats of the following molecule: CC(C)N(C(=O)n1oc(=O)n(C2CCCCC2C(F)(F)F)c1=O)c1ccc(F)cc1 (stereo not drawn) [Compound 99]
Solution: 0

Exercise: Name the reported Plant response rating, Wild oats value associated with the molecule CC1CCCCC1n1c(=O)on(C(=O)N(c2ccc(F)cc2F)C(C)C)c1=O (stereo not drawn) [Compound 172]
Solution: 0
